Hi there, I'd appreciate the recorded log10 Ki for every entry that follows.
- Protocol Notes: Inhibition of Flaveria bidentis beta-carbonic anhydrase-1 preincubated for 15 mins by stopped flow CO2 hydration assay
// stored as log10 of Ki expressed in µM

Request: Consider the molecule shown here: N=C=S [SODIUM ISOTHIOCYANATE] What is its recorded log10 Ki?
Result: 2.92

Request: Consider the molecule shown here: O=C([O-])[O-].[Na+].[Na+] [SODIUM CARBONATE] What is its recorded log10 Ki?
Result: 2.92

Request: Consider the molecule shown here: N=C=[Se] [SODIUM ISOSELENOCYANATE] What is its recorded log10 Ki?
Result: 2.94

Request: Consider the molecule shown here: O=[Te](=O)(O)O [SODIUM TELLURATE] What is its recorded log10 Ki?
Result: 2.95

Request: Consider the molecule shown here: O=S(=O)(O)ONOS(=O)(=O)O [SODIUM IMINODISULFATE] What is its recorded log10 Ki?
Result: 4.71

Request: Consider the molecule shown here: S [SODIUM HYDROSULFIDE] What is its recorded log10 Ki?
Result: 2.93

Request: Consider the molecule shown here: [N-]=[N+]=[N-] [SODIUM AZIDE] What is its recorded log10 Ki?
Result: 2.66

Request: Consider the molecule shown here: [I-].[Na+] [SODIUM IODIDE] What is its recorded log10 Ki?
Result: 2.85

Request: Consider the molecule shown here: O=[As](O)(O)c1ccccc1 What is its recorded log10 Ki?
Result: 0.78

Request: Consider the molecule shown here: O=NO [SODIUM NITRITE] What is its recorded log10 Ki?
Result: 2.76
